test system: gp120 (Human immunodeficiency virus type 1 group M subtype B, UniProt P35961)
Construct: made in house; host or cells: Drosophila S2 cells
Assay type: binding, HIV-1
experimental setup: ITC, 25° C., PBS pH 7.4
*1 amine or outer side, *2 acyl side, *3 side chain or, on linkers, in order; H or OH if unused. Where a SMILES comes first, the peptide text is derived from it. [ ]: non-standard residue; d: D form. X1 = O=C([C@@H]1C[C@H](n2cc([C]34[CH]5[CH]6[CH]7[CH]3[Fe]6754389%10[CH]4[CH]3[CH]8[CH]9[CH]4%10)nn2)CN1[*:1])[*:2]

{"columns": ["molecule", "value units", "−TΔS"],
 "data": [
  ["CC[C@H](C)[C@H](NC(=O)[C@@H](N)CC(N)=O)C(=O)N1C[C@@H](n2cc([C]34[CH]5[CH]6[CH]7[CH]3[Fe]6754389%10[CH]4[CH]3[CH]8[CH]9[CH]4%10)nn2)C[C@H]1C(=O)N[C@@H](Cc1c[nH]c2ccccc12)C(=O)N[C@@H](CO)C(N)=O (some centres unmarked) [UM41] (H-NI[X1]WS-NH2)", "kcal/mol", -1.6]
]}
